Here, each record is paired with measured protein stability index data.
B1: TFE3 (parent)
chain: FPSDHLGDLGDPFHLGLEDILMEE

variants of: B1; assay: protein stability index of a GFP-peptide fusion (GPS, HEK-293T) (PSI 1-6); higher = more stable; details: c terminus: a fixed tail appended;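 note: lentivirally expressed fusions sorted by FACS into six bins by GFP to DsRed ratio, PSI derived from sequencing read proportions per bin multiplied by bin number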
Just the number, please, no unit after it.

// worked examples, protein stability index included
P12Q
4.29
G16W
1.85
L17C
3.5

Continue with the variant presented below.
Prompt line: Give the measured protein stability index of H5I .
Response line: 3.08
